Biological target: ABCB1 (Homo sapiens, UniProt P08183)
Sequence (P08183 whole entry): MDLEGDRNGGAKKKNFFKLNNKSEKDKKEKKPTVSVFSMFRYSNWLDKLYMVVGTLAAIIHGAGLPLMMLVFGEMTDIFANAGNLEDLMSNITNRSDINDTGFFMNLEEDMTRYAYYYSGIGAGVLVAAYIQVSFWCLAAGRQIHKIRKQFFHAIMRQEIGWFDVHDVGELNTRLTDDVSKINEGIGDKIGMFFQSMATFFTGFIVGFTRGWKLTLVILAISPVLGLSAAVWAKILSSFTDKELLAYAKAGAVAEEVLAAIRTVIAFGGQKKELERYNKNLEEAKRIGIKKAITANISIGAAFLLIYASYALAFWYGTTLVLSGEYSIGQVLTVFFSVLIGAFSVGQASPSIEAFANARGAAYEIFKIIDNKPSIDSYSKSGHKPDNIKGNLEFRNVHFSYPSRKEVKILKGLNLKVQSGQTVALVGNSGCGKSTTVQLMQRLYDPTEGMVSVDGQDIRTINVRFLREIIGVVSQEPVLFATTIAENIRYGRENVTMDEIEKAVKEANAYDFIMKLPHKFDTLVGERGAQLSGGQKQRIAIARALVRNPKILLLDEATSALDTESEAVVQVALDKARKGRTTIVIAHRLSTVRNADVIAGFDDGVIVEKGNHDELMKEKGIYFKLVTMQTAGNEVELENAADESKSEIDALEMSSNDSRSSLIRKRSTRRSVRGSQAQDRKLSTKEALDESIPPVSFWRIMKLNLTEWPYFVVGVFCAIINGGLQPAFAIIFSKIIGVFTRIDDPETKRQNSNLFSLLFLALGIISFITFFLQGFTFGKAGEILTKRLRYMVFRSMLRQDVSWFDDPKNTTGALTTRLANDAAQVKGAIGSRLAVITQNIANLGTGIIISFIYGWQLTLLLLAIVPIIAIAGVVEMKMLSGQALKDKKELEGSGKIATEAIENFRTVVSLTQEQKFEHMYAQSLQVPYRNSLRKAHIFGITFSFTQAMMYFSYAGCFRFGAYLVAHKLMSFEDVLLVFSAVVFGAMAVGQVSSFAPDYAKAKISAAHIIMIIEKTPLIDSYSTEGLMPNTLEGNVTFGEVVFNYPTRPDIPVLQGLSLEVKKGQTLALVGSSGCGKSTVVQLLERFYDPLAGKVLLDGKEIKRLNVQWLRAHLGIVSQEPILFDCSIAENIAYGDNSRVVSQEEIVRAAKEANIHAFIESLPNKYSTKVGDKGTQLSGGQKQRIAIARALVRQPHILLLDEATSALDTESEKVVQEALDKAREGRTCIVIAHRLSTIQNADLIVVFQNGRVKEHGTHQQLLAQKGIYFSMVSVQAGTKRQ
Experiment: biochemical
readout label: pEC50
Units for pEC50: none; it is -log10 of a concentration expressed in mol/L.

I have this molecule here, CCn1cc(-c2ccnc3[nH]c(-c4cccc(CN(C)C)c4)cc23)c(-c2ccc(NC(=O)N(C)C)cc2)n1 [GSK-1070916] , and I need its recorded pEC50.
6.08
